method-description: Kinetic parameter for antibody-catalyzed Kemp elimination, at pH 7.1, 30C, using 1% acetonitrile and 4B2 as catalyst was expressed as Kcat
Assay type: ADME
quantity-measured: k cat (s⁻¹)
Field format: number, assumed s⁻¹, no unit text.

The molecule listed as O=[N+]([O-])c1ccc2oncc2c1 shows k cat equal to 0.035

----------
method-description: Kinetic parameter for antibody-catalyzed Kemp elimination, at pH 7.1, 30C, using 5% acetonitrile and 4B2 as catalyst was expressed as Kcat/Kuncat
Format: ADME
quantity-measured: k cat/Kuncat

The compound listed as O=[N+]([O-])c1ccc2oncc2c1 shows k cat/Kuncat equal to 6300

----------
method-description: Kinetic parameter for antibody-catalyzed Kemp elimination, at pH 7.1, 30C, using 5% acetonitrile and 4B2 as catalyst was expressed as Kcat
Type: ADME
quantity-measured: k cat
# answer = value followed by unit

The compound listed as O=[N+]([O-])c1ccc2oncc2c1 shows k cat equal to 0.022 s⁻¹

----------
method-description: Kinetic parameter for antibody-catalyzed Kemp elimination, at pH 7.1, 30C, using 5% acetonitrile and 4B2 as catalyst was expressed as KM
Format: ADME
quantity-measured: Km (µM)
Field format: number, assumed µM, no unit text.

The compound listed as O=[N+]([O-])c1ccc2oncc2c1 shows Km equal to 2100
